Target: UniProt:P08173
Sequence (P08173 whole entry): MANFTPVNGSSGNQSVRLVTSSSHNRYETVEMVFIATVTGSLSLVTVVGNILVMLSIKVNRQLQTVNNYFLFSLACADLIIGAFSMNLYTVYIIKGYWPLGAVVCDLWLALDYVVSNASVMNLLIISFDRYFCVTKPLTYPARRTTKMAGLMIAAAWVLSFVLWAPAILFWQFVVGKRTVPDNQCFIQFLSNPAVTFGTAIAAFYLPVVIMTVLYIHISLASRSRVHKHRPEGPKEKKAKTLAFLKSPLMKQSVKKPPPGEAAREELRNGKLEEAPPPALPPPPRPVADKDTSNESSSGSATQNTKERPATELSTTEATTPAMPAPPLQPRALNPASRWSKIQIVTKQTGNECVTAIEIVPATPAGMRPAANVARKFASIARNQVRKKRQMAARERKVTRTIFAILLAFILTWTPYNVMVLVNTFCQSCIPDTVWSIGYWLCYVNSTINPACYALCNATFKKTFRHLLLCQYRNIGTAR
Experiment: Muscarinic binding activity, 3H-QNB, m4
pKi: −log10 of the molar value.
Measured quantity: pKi

- CC(C)C(c1ccc(Oc2ncccn2)cc1)N1CCN(C2CCCCC2)CC1 (stereo not shown): 7.44 to 9.48

----------
Structures can show the parent of a compound that is named as a salt.
Measured melting point, listed per entry.
Measured quantity: melting point

* COc1ccc([S+]([O-])c2ccc(C(=O)C3CCN(C4CCCCC4)CC3)cc2)cc1 (stereo not drawn) | 125 °C
* C=C(c1ccc(Sc2ccc(OC)cc2)cc1)C1CCN(C2CCCCC2)CC1 (as salt: hydrochloride) | 227 to 230 °C
* O=C(O)/C=C\C(=O)O.c1ccc(Oc2ccc(C3(N4CCN(C5CCCCC5)CC4)CCSCC3)cc2)cc1 | 137 to 139 °C
* C=C(c1ccc([S+]([O-])c2ccc(OC)cc2)cc1)C1CCN(C2CCCCC2)CC1 (single isomer, unassigned) | 141 to 142 °C
* COc1ccc(S(=O)(=O)c2ccc([C@H](C)N3CCN(C4CCCCC4)C[C@H]3C)cc2)cc1 | 227 to 230 °C
* COc1ccc(S(=O)(=O)c2ccc([C@@H](C)N3CCN(C4CCCCC4)C[C@H]3C)cc2)cc1 | 241 to 242 °C

----------
Molecular target: cloned human m2 muscarinic receptor (Homo sapiens)
Sequence (P08172 1-466): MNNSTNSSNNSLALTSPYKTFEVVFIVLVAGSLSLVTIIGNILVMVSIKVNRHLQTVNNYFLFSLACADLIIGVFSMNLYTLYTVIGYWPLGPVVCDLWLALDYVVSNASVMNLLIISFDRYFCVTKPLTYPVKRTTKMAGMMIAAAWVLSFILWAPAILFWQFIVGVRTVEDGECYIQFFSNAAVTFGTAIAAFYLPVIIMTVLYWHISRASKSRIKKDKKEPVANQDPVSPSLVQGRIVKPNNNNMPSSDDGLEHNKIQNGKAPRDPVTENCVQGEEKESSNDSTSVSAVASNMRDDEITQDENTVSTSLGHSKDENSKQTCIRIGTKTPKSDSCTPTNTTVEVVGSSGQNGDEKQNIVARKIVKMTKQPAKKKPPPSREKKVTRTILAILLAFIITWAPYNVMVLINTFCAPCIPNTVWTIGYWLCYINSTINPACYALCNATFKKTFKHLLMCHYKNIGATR
Assay: Muscarinic binding activity, 3H-QNB, m2
Settings: range given for the named group of compounds; read-out: Ki, nM, m2
Measured quantity: Ki

- C=C(c1ccc([S+]([O-])c2ccc(OC)cc2)cc1)C1CCN(C2CCCCC2)CC1 (stereo not drawn) [Compound 304]: 0.05 to 16.6 nM
- c1cnc(Oc2ccc(C(C3CCCCC3)N3CCN(C4CCCCC4)CC3)cc2)nc1 (single isomer, unassigned) [227(−)]: 0.05 to 16.6 nM
- CC1CN(C2CCCCC2)CCN1C(C)c1ccc(Oc2ncccn2)cc1 (stereo not drawn) [Compound 269]: 0.05 to 16.6 nM
- C=C(c1ccc(Sc2ccc(OC)cc2)cc1)C1CCN(C2CCCCC2)CC1 [Compound 302]: 0.05 to 16.6 nM
- COc1ccc([S+]([O-])c2ccc(C(C)(C#N)N3CCN(C4CCCCC4)CC3)cc2)cc1 (stereo not drawn) [Compound 289]: 0.05 to 16.6 nM
- COc1ccc(S(=O)(=O)c2ccc([C@H](C)N3CCN(C4CCCCC4)C[C@H]3C)cc2)cc1 [Compound 656]: 0.03 to 0.48 nM
- COC(=O)C(c1ccc(S(=O)(=O)c2ccc(OC)cc2)cc1)N1CCN(C2CCCCC2)CC1 (stereo not drawn) [Compound 214]: 0.05 to 16.6 nM
- C=C(c1ccc([S+]([O-])c2ccc(OC)cc2)cc1)C1CCN(C2CCCCC2)CC1 (single isomer, unassigned) [Compound 300]: 0.05 to 16.6 nM
- C=C(c1ccc(S(=O)(=O)c2ccc(OC)cc2)cc1)C1CCN(C2CCN(C(=O)OCC)CC2)CC1 [Compound 760]: 0.03 to 0.48 nM
- COC(=O)C(C)(c1ccc([S+]([O-])c2ccc(OC)cc2)cc1)N1CCN(C2CCCCC2)CC1 (stereo not drawn) [Compound 296]: 0.05 to 16.6 nM
- COc1ccc(S(=O)(=O)c2ccc([C@@H](C)N3CCN(C4CCCCC4)C[C@H]3C)cc2)cc1 [Compound 667]: 0.03 to 0.48 nM
- COc1ccc([S+]([O-])c2ccc(C(=O)C3CCN(C4CCCCC4)CC3)cc2)cc1 (stereo not drawn) [Compound 305]: 0.05 to 16.6 nM
